Tested on: caspase 3 in Caco-2 cells
assay comment: Caspase 3 colorimetric assay, Caco-2 lysates
Type: cell-based, human
condition set: time of exposure
measure name: time at which high caspase 3 levels were observed (h)
Could you give me the number in h? Just the number is fine.

These recorded examples may help you get a feel for the data.
COc1ccc(-c2nc3ccc(-c4ccccc4)cn3c2Nc2c(C)cccc2C)cc1OC	2
COc1ccc(OC)c(-c2nc3ccc(Br)cn3c2NCc2ccccc2)c1	2
COc1ccc(-c2nc3ccc(Br)cn3c2Nc2c(C)cccc2C)cc1OC	2

# input for lookup
stdin: What does the data say about its time at which high caspase 3 levels were observed? Entry: COc1ccc(-c2nc3ccc(C)cn3c2Nc2c(C)cccc2C)cc1OC
stdout: 4
